# Test system: Chinese hamster V79-379 lung fibroblasts
# assay_comment: Uptake of phthalocyanines into V79 cells
# conditions: V79 cells, 1.0 μM, 18 hours
Listing: Uptake, Efficiency Relative to 1 μM (AlPcCl) of selected compounds
The answer should be written as a number, with no unit following it.

Below, 3 compounds whose answers are already recorded.
C[N+](C)(C)CCC[Si](C)(C)O[Si]1(O[Si](C)(C)CCC[N+](C)(C)C)n2c3c4ccccc4c2N=C2N=C(N=c4c5ccccc5c(n41)=NC1=NC(=N3)c3ccccc31)c1ccccc12.[I-].[I-] [Compound VI, SiPc[OSi(CH3)2(CH2)3N(CH3)3)^+I^−]2]; 0.1
CN(C)CCC[Si](C)(C)O[Si]1(C)n2c3c4ccccc4c2N=C2N=C(N=c4c5ccccc5c(n41)=NC1=NC(=N3)c3ccccc31)c1ccccc12 (stereo not shown); 0.07
C[N+](C)(C)CCC[Si](C)(C)O[Si]1(O)n2c3c4ccccc4c2N=C2N=C(N=c4c5ccccc5c(n41)=NC1=NC(=N3)c3ccccc31)c1ccccc12.[I-] (stereo not shown); 0.3

Incoming: Give reported Uptake, Efficiency Relative to 1 μM (AlPcCl) value for [Cl][Al]1[n]2c3c4ccccc4c2N=C2N=C(N=c4c5ccccc5c([n]41)=NC1=NC(=N3)c3ccccc31)c1ccccc12 [AlPcCl, chloroaluminum phthalocyanine, reference compound]
Outgoing: 1.0

====

# Tested on: Chinese hamster V79-379 lung fibroblasts
# assay_comment: Uptake of phthalocyanines into V79 cells
# conditions: 1 μM, 18 hours
Each item that follows carries a reported Uptake Into V79 Cells, 1 μM.
State just the number; it will be interpreted in n Moles/10^6 cells.

Check out these entries, answers already filled in.
CCN(CCC[Si](C)(C)O[Si]1(O[Si](C)(C)CCCN(CC)CCN(C)C)n2c3c4ccccc4c2N=C2N=C(N=c4c5ccccc5c(n41)=NC1=NC(=N3)c3ccccc31)c1ccccc12)CCN(C)C [Compound XVIII]; 0.3
C[Si](C)(CCCCNS(C)(=O)=O)O[Si]1(O)n2c3c4ccccc4c2N=C2N=C(N=c4c5ccccc5c(n41)=NC1=NC(=N3)c3ccccc31)c1ccccc12 (stereo not drawn) [IX, HOSiPcOSi(CH3)2(CH2)4NHSO2CH3]; 0.1

Proceed to the following item.
Incoming: State the measured Uptake Into V79 Cells, 1 μM (Chinese hamster V79-379 lung fibroblasts) of C[Si](C)(CCCN1CCSCC1)O[Si]1(O)n2c3c4ccccc4c2N=C2N=C(N=c4c5ccccc5c(n41)=NC1=NC(=N3)c3ccccc31)c1ccccc12 (stereo not drawn) [Compound XXIV, HOSiPCOSi(CH3)2(CH2)3NC4H8S]
Outgoing: 0.003

====

Entries annotated with measured n Moles/10^6 Cells/μM (composite uptake value)
# Tested on: Chinese hamster V79-379 lung fibroblasts
# assay_comment: Uptake of phthalocyanines into V79 cells
# conditions: V79 cells; average of all data; asterisk: listed value is for 1 μM, average would be higher
State the answer as a number, implicitly in n Moles/10^6 Cells/μM.

Observe how each entry below is paired with its result.
CC(=O)OCCC[Si](C)(C)O[Si]1(O)n2c3c4ccccc4c2N=C2N=C(N=c4c5ccccc5c(n41)=NC1=NC(=N3)c3ccccc31)c1ccccc12 (centres unmarked); 0.4
C[Si](C)(CCCCNC(=S)N[C@@H]1O[C@H](CO)[C@@H](O)[C@H](O)[C@H]1O)O[Si]1(O[Si](C)(C)CCCCNC(=S)N[C@@H]2O[C@H](CO)[C@@H](O)[C@H](O)[C@H]2O)n2c3c4ccccc4c2N=C2N=C(N=c4c5ccccc5c(n41)=NC1=NC(=N3)c3ccccc31)c1ccccc12 [Compound XI, SiPc[OSi(CH3)2(CH2)4NHCSNHC6H111O5]2]; 0.1
C[Si](C)(CCCCN)O[Si]1(O[Si](C)(C)CCCCN)n2c3c4ccccc4c2N=C2N=C(N=c4c5ccccc5c(n41)=NC1=NC(=N3)c3ccccc31)c1ccccc12 [Compound VII, SiPc[OSi(CH3)2(CH2)4NH2]2]; 0.2
C[Si](C)(CCCCNS(C)(=O)=O)O[Si]1(O[Si](C)(C)CCCCNS(C)(=O)=O)n2c3c4ccccc4c2N=C2N=C(N=c4c5ccccc5c(n41)=NC1=NC(=N3)c3ccccc31)c1ccccc12 [Compound VIII, SiPc[OSi(CH3)2(CH2)4NHSO2CH3]2]; 0.2

Incoming: Provide n Moles/10^6 Cells/μM (composite uptake value), system Chinese hamster V79-379 lung fibroblasts, entry CN(C)CCC[Si](C)(C)O[Si]1(O[Si](C)(C)CCCN(C)C)n2c3c4ccccc4c2N=C2N=C(N=c4c5ccccc5c(n41)=NC1=NC(=N3)c3ccccc31)c1ccccc12 [Compound XII, SiPc[OSi(CH3)2(CH2)3N(CH3)2]2]
Outgoing: 1.6

Incoming: Report value: n Moles/10^6 Cells/μM (composite uptake value), system: Chinese hamster V79-379 lung fibroblasts, compound: CN(C)CCCN(CCCN(C)C)CCC[Si](C)(C)O[Si]1(O)n2c3c4ccccc4c2N=C2N=C(N=c4c5ccccc5c(n41)=NC1=NC(=N3)c3ccccc31)c1ccccc12 (centres unmarked) [Compound XXVII, HOSiPcOSi(CH3)2(CH2)3N[(CH2)3N(CH3)2]2]
Outgoing: 1.5

Incoming: # lookup: Chinese hamster V79-379 lung fibroblasts n Moles/10^6 Cells/μM (composite uptake value), key = "CCCCCCCCCCCC[N+](C)(C)CCC[Si](C)(C)[O][Al]1[n]2c3c4ccccc4c2N=C2N=C(N=c4c5ccccc5c([n]41)=NC1=NC(=N3)c3ccccc31)c1ccccc12.[I-]"
Outgoing: 1.3

====

# System: Chinese hamster V79-379 lung fibroblasts
# assay_comment: Uptake of phthalocyanines into V79 cells
# conditions: 4 μM, 18 hours
# Procedure: Chinese hamster V79-379 lung fibroblasts were grown in monolayer culture in McCoy's 5A medium (Gibco Laboratories, Grand Island, N.Y.) augmented with 10% calf serum and buffered with 20 mM HEPES (pH 7.4). Total uptake was determined by scraping the phthalocyanine-treated monolayer, collecting the cells on a glass-fiber filter, and extracting the phthalocyanine in ethanol, as previously described by Ramakrishnan, et al., 1989. […]
Reported Uptake Into V79 Cells, 4 μM values follow for various molecules
Write the answer as a number in n Moles/10^6 cells, unit excluded.

Incoming: Supply Uptake Into V79 Cells, 4 μM value. Item: CCCCN(CCCC)CCC[Si](C)(C)O[Si]1(O)n2c3c4ccccc4c2N=C2N=C(N=c4c5ccccc5c(n41)=NC1=NC(=N3)c3ccccc31)c1ccccc12 (centres unmarked)
Outgoing: 1.5

Incoming: Give the measured Uptake Into V79 Cells, 4 μM for "CCCCCCCCCCCC[N+](C)(C)CCC[Si](C)(C)O[Si]1(O[Si](C)(C)CCC[N+](C)(C)CCCCCCCCCCCC)n2c3c4ccccc4c2N=C2N=C(N=c4c5ccccc5c(n41)=NC1=NC(=N3)c3ccccc31)c1ccccc12"
Outgoing: 0.05

Incoming: Name the recorded Uptake Into V79 Cells, 4 μM of the molecule listed here: C[Si](C)(CCCCNC(=S)N[C@@H]1O[C@H](CO)[C@@H](O)[C@H](O)[C@H]1O)O[Si]1(O[Si](C)(C)CCCCNC(=S)N[C@@H]2O[C@H](CO)[C@@H](O)[C@H](O)[C@H]2O)n2c3c4ccccc4c2N=C2N=C(N=c4c5ccccc5c(n41)=NC1=NC(=N3)c3ccccc31)c1ccccc12 [Compound XI, SiPc[OSi(CH3)2(CH2)4NHCSNHC6H111O5]2]
Outgoing: 0.3

Incoming: Item CN(C)CCCN(CCCN(C)C)CCC[Si](C)(C)O[Si]1(O)n2c3c4ccccc4c2N=C2N=C(N=c4c5ccccc5c(n41)=NC1=NC(=N3)c3ccccc31)c1ccccc12 (centres unmarked) [Compound XXVII, HOSiPcOSi(CH3)2(CH2)3N[(CH2)3N(CH3)2]2] : provide Uptake Into V79 Cells, 4 μM
Outgoing: 5.0

Incoming: Tell us which Uptake Into V79 Cells, 4 μM value is on record for C[Si](C)(CCCCNS(C)(=O)=O)O[Si]1(O)n2c3c4ccccc4c2N=C2N=C(N=c4c5ccccc5c(n41)=NC1=NC(=N3)c3ccccc31)c1ccccc12 (centres unmarked)
Outgoing: 1.8

Incoming: Given the molecule CC(=O)OCCC[Si](C)(C)O[Si]1(O)n2c3c4ccccc4c2N=C2N=C(N=c4c5ccccc5c(n41)=NC1=NC(=N3)c3ccccc31)c1ccccc12 (centres unmarked) , write its reported Uptake Into V79 Cells, 4 μM.
Outgoing: 1.7

Incoming: Please give measured Uptake Into V79 Cells, 4 μM of the following entry: C[Si](C)(CCCN1CCSCC1)O[Si]1(O)n2c3c4ccccc4c2N=C2N=C(N=c4c5ccccc5c(n41)=NC1=NC(=N3)c3ccccc31)c1ccccc12 (centres unmarked)
Outgoing: 1.3

Incoming: Specify reported Uptake Into V79 Cells, 4 μM for the molecule shown: C[Si](C)(CCCCNS(C)(=O)=O)O[Si]1(O[Si](C)(C)CCCCNS(C)(=O)=O)n2c3c4ccccc4c2N=C2N=C(N=c4c5ccccc5c(n41)=NC1=NC(=N3)c3ccccc31)c1ccccc12 [Compound VIII, SiPc[OSi(CH3)2(CH2)4NHSO2CH3]2]
Outgoing: 0.8

# credit: patent US8211883B2
